molecular target: dopamine D4.4 receptor (Homo sapiens, UniProt P21917); assay: dopamine D4.4 receptor binding (inhibition of labeled ligand binding); conditions: compound at 1micrMol
Sequence (P21917 whole entry): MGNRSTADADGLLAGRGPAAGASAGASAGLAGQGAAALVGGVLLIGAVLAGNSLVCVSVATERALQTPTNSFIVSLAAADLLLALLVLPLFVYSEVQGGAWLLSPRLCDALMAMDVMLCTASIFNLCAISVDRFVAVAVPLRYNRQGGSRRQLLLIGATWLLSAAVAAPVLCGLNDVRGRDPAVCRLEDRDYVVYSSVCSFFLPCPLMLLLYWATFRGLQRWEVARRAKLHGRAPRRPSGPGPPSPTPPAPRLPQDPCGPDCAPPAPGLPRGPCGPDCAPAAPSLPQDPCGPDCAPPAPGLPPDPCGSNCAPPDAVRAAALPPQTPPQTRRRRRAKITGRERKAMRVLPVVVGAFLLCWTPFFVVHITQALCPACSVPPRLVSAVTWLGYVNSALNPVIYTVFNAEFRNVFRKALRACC
readoutType: D4 binding, percentage inhibition of labeled ligand binding
Hey, just the number and the unit after it is fine.

Prompt: Given the entry `N#Cc1ccccc1N1CCN(Cc2cccc3c2oc2ccccc23)CC1` , what D4 binding, percentage inhibition of labeled ligand binding was observed with dopamine D4.4 receptor (Homo sapiens, UniProt P21917)?
Completion: 64.9%

Prompt: Hello, I am looking for reported D4 binding, percentage inhibition of labeled ligand binding with dopamine D4.4 receptor (Homo sapiens, UniProt P21917) for `COc1ccccc1N1CCN(Cc2cccc3c2oc2ccccc23)CC1` . Could you help?
Completion: 78%

Prompt: # returns recorded D4 binding, percentage inhibition of labeled ligand binding (system: dopamine D4.4 receptor (Homo sapiens, UniProt P21917)) for `Oc1cccc(N2CCN(Cc3cccc4c3oc3ccccc34)CC2)c1`
Completion: 77.7%

Prompt: Provide value of D4 binding, percentage inhibition of labeled ligand binding for this record tested with dopamine D4.4 receptor (Homo sapiens, UniProt P21917): `c1ccc(C2CCN(Cc3cccc4c3oc3ccccc34)CC2)cc1`
Completion: 69.1%

Entry source: patent US9278957B2
